Answer each item with its documented IC50.
Biological target: DCN1 (DCUND1) protein PONY domain (Homo sapiens (Human), UniProt Q96GG9)
Sequence (Q96GG9 60-248): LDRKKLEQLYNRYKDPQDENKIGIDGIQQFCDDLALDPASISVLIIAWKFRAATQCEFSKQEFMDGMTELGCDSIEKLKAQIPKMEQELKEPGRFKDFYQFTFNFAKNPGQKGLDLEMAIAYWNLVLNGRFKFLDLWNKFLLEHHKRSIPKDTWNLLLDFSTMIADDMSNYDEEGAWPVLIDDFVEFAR
Test: TR-FRET assay, DCN1 binding with FAM-labeled probe
Settings: 24 hr after treatment with compound; read-out: TR FRET IC50 24 hr
Protocol: A TR-FRET assay was performed to evaluate the ability of the compounds to bind the DCN-1 protein. The TR-FRET assay was designed following the Scott et al. protocol (Scott et al., Nat Chem Biol. 2017 August; 13(8): 850-857. Doi:10.1038/nchembio.2386). […] The TR-FRET ratio between Tb-DCN1 and the FAM-labeled probe was measured in a 384-well opti-plate (Perkin Elmer) using a plate reader (BMG) at 1, 5, and 24 hrs after treatment with compound (final DMSO concentration of 0.1%).

# count of solved cases: 2
>>> print(df.to_string())
                                   compound           result
0  CCN1C(=O)[C@@H](NC(=O)c2c(Cl)ccc(OC)c2F)[C@@H](C2CC2)c2c(C(=O)N3[C@H](C#N)C[C@H]4C[C@H]43)nn(C3CCOCC3)c21  1000 to 3000 nM
1  C=C(C)S(=O)(=O)NCc1nn(-c2ccccc2)c2c1[C@H](c1ccc(F)cc1)[C@H](NC(=O)c1cccc(C(F)(F)F)c1)C(=O)N2CC (racemic)   200 to 1000 nM

// for each compound below, give its IC50
1. CCN1C(=O)[C@@H](NC(=O)c2cccc(C(F)(F)F)c2)[C@@H](c2ccc(F)cc2)c2c(C(=O)N(C)[C@H](C#N)CCN3CC4CCC(C3)O4)nn(-c3ccccc3)c21
2. C=C(CN1CC(O)C1)C(=O)NCc1nn(-c2ccccc2)c2c1[C@H](c1ccc(F)cc1)[C@H](NC(=O)c1cccc(C(F)(F)F)c1)C(=O)N2CC
3. CCN1C(=O)[C@@H](NC(=O)c2cccc(C(F)(F)F)c2)[C@@H](C2CC2)c2c(C(=O)N(C)[C@H](C#N)CCN(C)C3COC3)nn(C3CCOCC3)c21

["≤ 200 nM", "≤ 200 nM", "≤ 200 nM"]

----------
tested on: Cullin-3 (CUL3) neddylation; experiment: AlphaLISA assay for Cullin-3 (CUL3) neddylation in TF 1 cells; type: cell-based; details: Homo sapiens, TF-1, 3 h, 3 hours treatment
For each of the compounds below, state its IC50.

# count of solved cases: 3
compound	IC50
CCN1C(=O)[C@@H](NC(=O)c2cccc(C(F)(F)F)c2)[C@@H](c2ccc(F)cc2)c2c(C(=O)N3CCC[C@H]3C#N)nn(-c3cccc(OCCCN4CC5(COC5)C4)c3)c21 (stereo in doubt) [Compound I-615]	> 1000 nM
CCN1C(=O)[C@@H](NC(=O)c2cccc(C(F)(F)F)c2)[C@@H](c2ccc(F)cc2)c2c(C(=O)N3CCC=C3C#N)nn(C3CCOCC3)c21 [Compound I-631]	100 to 1000 nM
CCN1C(=O)[C@@H](NC(=O)c2cccc(C(F)(F)F)c2)[C@@H](c2ccc(F)cc2)c2c(C(=O)N(C)CC#N)nn(-c3ccccc3)c21 (racemic) [Compound I-5]	≤ 100 nM

Return reported IC50 values for all items listed beneath this line.
1. CCN1C(=O)[C@@H](NC(=O)c2cccc(C(F)(F)F)c2)[C@H](c2ccc(F)cc2)c2c(CC(=O)NCC#N)nn(-c3ccccc3)c21 [Compound I-298]
2. CCN1C(=O)[C@@H](NC(=O)[C@H]2C[C@@H]3CCCC[C@@H]3N2)[C@@H](C2CC2)c2c(C(=O)N3[C@H](C#N)C[C@H]4C[C@H]43)nn(C3CCOCC3)c21 [Compound I-566]

100 to 1000 nM
> 1000 nM

----------
target: DCN1 (DCUND1) protein PONY domain (Homo sapiens (Human), UniProt Q96GG9); assay: TR-FRET assay, DCN1 binding with FAM-labeled probe; settings: 24 hr after treatment with compound; read-out: TR FRET IC50 24 hr
pIC50: −log10 of the molar value.
recorded_endpoint: pIC50

Study these solved cases before continuing.
compound	test_system	result
CCN1C(=O)[C@@H](NC(=O)c2cccc(C(F)(F)F)c2)[C@@H](c2ccc(F)cc2)c2c(CN(C#N)CCN(C)C)nn(-c3ccccc3)c21 (racemic) [Compound I-486]	DCN1 (DCUND1) protein PONY domain (Homo sapiens (Human), UniProt Q96GG9)	≥ 6.70
CCN1C(=O)[C@@H](NC(=O)c2cccc(C(F)(F)F)c2)[C@@H](c2ccccn2)c2c([C@@H](C)NC#N)nn(-c3ccccc3)c21 (mixture of isomers) [Compound I-680]	DCN1 (DCUND1) protein PONY domain (Homo sapiens (Human), UniProt Q96GG9)	≥ 6.70
C=C(CC(=O)OC)C(=O)NCc1nn(-c2ccccc2)c2c1[C@H](c1ccc(F)cc1)[C@H](NC(=O)c1cccc(C(F)(F)F)c1)C(=O)N2CC (racemic) [Compound I-103]	DCN1 (DCUND1) protein PONY domain (Homo sapiens (Human), UniProt Q96GG9)	6.00 to 6.70
CCN1C(=O)[C@@H](NC(=O)c2cccc(OC)c2)[C@@H](C2CC2)c2c(C(=O)N3[C@H](C#N)C[C@H]4C[C@H]43)nn(C3CCOCC3)c21 [Compound I-395]	DCN1 (DCUND1) protein PONY domain (Homo sapiens (Human), UniProt Q96GG9)	≥ 6.70
C=C(CN1CCOCC1)C(=O)NCc1nn(-c2ccccc2)c2c1[C@H](c1ccc(F)cc1)[C@H](NC(=O)c1cccc(C(F)(F)F)c1)C(=O)N2CC (racemic) [Compound I-67]	DCN1 (DCUND1) protein PONY domain (Homo sapiens (Human), UniProt Q96GG9)	≥ 6.70
C=C(CN1CC2(COC2)C1)C(=O)NCc1nn(-c2ccccc2)c2c1[C@H](c1ccc(F)cc1)[C@@H](NC(=O)c1cccc(C(F)(F)F)c1)C(=O)N2CC [Compound I-149]	DCN1 (DCUND1) protein PONY domain (Homo sapiens (Human), UniProt Q96GG9)	≥ 6.70
CCN1C(=O)[C@@H](NC(=O)c2cccc(C(F)(F)F)c2)[C@@H](c2ccc(F)cc2)c2c(C(=O)N(CC#N)CCN3CCN(C4COC4)CC3)nn(-c3ccccc3)c21 [Compound I-323]	DCN1 (DCUND1) protein PONY domain (Homo sapiens (Human), UniProt Q96GG9)	≥ 6.70
CCN1C(=O)[C@@H](NC(=O)c2nccc(C(F)(F)F)n2)[C@H](c2ccc(F)cc2)c2c(CC(=O)N[C@H](C)C#N)nn(-c3ccccc3)c21 (single isomer, unassigned) [Compound I-607]	DCN1 (DCUND1) protein PONY domain (Homo sapiens (Human), UniProt Q96GG9)	5.52 to 6.00

I need pIC50 for every entry listed below, if you could help.
1. CCN1C(=O)[C@H](NC(=O)c2cccc(C(F)(F)F)c2)[C@H](c2ccc(F)cc2)c2c([C@H](C)NC#N)nn(-c3ccccc3)c21 [Compound I-410]
2. CCN1C(=O)[C@@H](NC(=O)c2cccc(C(F)(F)F)c2)[C@@H](c2ccc(F)cc2)c2c(C(=O)N(CC#N)CCN(C)C)nn(-c3ccccc3)c21 (racemic) [Compound I-448]
3. CCN1C(=O)C(NC(=O)c2cccc(C(F)(F)F)c2)[C@@H](C2CC2)c2c(C(=O)N3CC(NC)CC3C#N)nn(C3CCOCC3)c21 (stereo in doubt) [Compound I-420]

["6.00 to 6.70", "≥ 6.70", "5.52 to 6.00"]

Go through the items and report each one's pIC50.
1. CCN1C(=O)[C@H](NC(=O)c2cccc(C(F)(F)F)c2)[C@H](c2ccc(F)cc2)c2c(C(=O)N(CC#N)CCC(=O)OC)nn(-c3ccccc3)c21 (stereo in doubt) [Compound I-461]
2. CCN1C(=O)[C@@H](NC(=O)c2ccn(C(F)(F)F)n2)[C@@H](c2ccc(F)cc2)c2c(C(=O)N3CCN(C)CC3C#N)nn(-c3ccccc3)c21 (some centres unmarked) [Compound I-684]
3. CCN1C(=O)[C@H](NC(=O)c2cccc(C(F)(F)F)c2)[C@H](c2ccc(F)cc2)c2c(C(=O)N3[C@H](C#N)C[C@H]4C[C@H]43)nn(-c3ccccc3)c21 [Compound I-541]

["5.52 to 6.00", "≥ 6.70", "5.52 to 6.00"]

----------
target: DCN1 (DCUND1) protein PONY domain (Homo sapiens (Human), UniProt Q96GG9); assay: TR-FRET assay, DCN1 binding with FAM-labeled probe; conditions: 24 hr after treatment with compound; read-out: TR FRET IC50 24 hr
pIC50: −log10 of the molar value.
recorded_endpoint: pIC50

Recorded pIC50, per entry:
In [3]: df
Out[3]:
                                   compound                               test_system        result
0  CCN1C(=O)[C@@H](NC(=O)c2cccc(C(F)(F)F)c2)[C@@H](c2ccc(F)cc2)c2c(CC/C=C/C(=O)O)nn(-c3ccccc3)c21 (racemic)  DCN1 (DCUND1) protein PONY domain (Homo sapiens (Human), UniProt Q96GG9)  6.00 to 6.70
1  CCN1C(=O)[C@@H](NC(=O)c2cccc(C(F)(F)F)c2)[C@@H](C2CC2)c2c(C(=O)N3CCOC[C@@H]3C#N)nn(-c3ccccc3)c21  DCN1 (DCUND1) protein PONY domain (Homo sapiens (Human), UniProt Q96GG9)  6.00 to 6.70
2  C=C(COC)C(=O)NCc1nn(-c2ccccc2)c2c1[C@H](c1ccc(F)cc1)[C@H](NC(=O)c1cccc(C(F)(F)F)c1)C(=O)N2CC  DCN1 (DCUND1) protein PONY domain (Homo sapiens (Human), UniProt Q96GG9)  6.00 to 6.70
3  CCN1C(=O)[C@@H](NC(=O)c2cccc3c2OCCC3)[C@@H](C2CC2)c2c(C(=O)N3[C@H](C#N)C[C@H]4C[C@H]43)nn(C3CCOCC3)c21  DCN1 (DCUND1) protein PONY domain (Homo sapiens (Human), UniProt Q96GG9)        ≥ 6.70
4  C=C(CN1CC2(CCOC2)C1)C(=O)NCc1nn(-c2ccccc2)c2c1[C@H](c1ccc(F)cc1)[C@H](NC(=O)c1cccc(C(F)(F)F)c1)C(=O)N2CC  DCN1 (DCUND1) protein PONY domain (Homo sapiens (Human), UniProt Q96GG9)        ≥ 6.70
5  CCN1C(=O)[C@H](NC(=O)c2cccc(C(F)(F)F)c2)[C@H](c2ccc(F)cc2)c2c(C(=O)N3CCC[C@H]3C#N)nn(-c3cccc(OCCN(C)C4COC4)c3)c21  DCN1 (DCUND1) protein PONY domain (Homo sapiens (Human), UniProt Q96GG9)  5.52 to 6.00
6  C=C(CN(C)CC1COC1)C(=O)NCc1nn(-c2ccccc2)c2c1[C@H](c1ccc(F)cc1)[C@H](NC(=O)c1cccc(C(F)(F)F)c1)C(=O)N2CC  DCN1 (DCUND1) protein PONY domain (Homo sapiens (Human), UniProt Q96GG9)        ≥ 6.70
7  CCN1C(=O)[C@@H](NC(=O)c2cccc3c2CCCO3)[C@@H](C2CC2)c2c(C(=O)N3[C@H](C#N)C[C@H]4C[C@H]43)nn(C3CCOCC3)c21  DCN1 (DCUND1) protein PONY domain (Homo sapiens (Human), UniProt Q96GG9)  6.00 to 6.70
8  CCN1C(=O)[C@@H](NC(=O)c2cccc(C(F)(F)F)c2)[C@@H](c2ccc(F)cc2)c2c(C(=O)N(CC#N)CCN(C)C)nn(C3CCOCC3)c21  DCN1 (DCUND1) protein PONY domain (Homo sapiens (Human), UniProt Q96GG9)        ≥ 6.70
9  CCN1C(=O)[C@@H](NC(=O)c2cccc(C(F)(F)F)c2)[C@@H](c2ccc(F)cc2)c2c(CNC#N)nn(-c3ccccc3)c21  DCN1 (DCUND1) protein PONY domain (Homo sapiens (Human), UniProt Q96GG9)        ≥ 6.70

Batch request: pIC50 per item, same order as input.
1. CCN1C(=O)[C@@H](NC(=O)c2cccc(C(F)(F)F)c2)[C@@H](c2ccc(F)cc2)c2c([C@@H](C)NC(N)=O)nn(-c3ccccc3)c21
2. CCN1C(=O)[C@@H](NC(=O)c2cccc(C(F)(F)F)c2)[C@@H](c2ccc(F)cc2)c2c(CN(C)C(=O)/C=C/C(=O)OC)nn(-c3ccccc3)c21 (racemic)
3. C=C(CN1CCC1)C(=O)NCc1nn(-c2ccccc2)c2c1[C@@H](c1ccc(F)cc1)[C@H](NC(=O)c1cccc(C(F)(F)F)c1)C(=O)N2CC
4. CCN1C(=O)[C@@H](NC(=O)c2cccc(C(F)(F)F)c2)[C@@H](c2ccc(F)cc2)c2c(CN(C)C/C=C/C(=O)OC(C)(C)C)nn(-c3ccccc3)c21
5. CCN1C(=O)[C@@H](NC(=O)c2cncc(C(F)(F)F)n2)[C@@H](C2CC2)c2c(C(=O)N3[C@H](C#N)C[C@H]4C[C@H]43)nn(C3CCOCC3)c21

1. 5.52 to 6.00
2. ≥ 6.70
3. ≥ 6.70
4. 5.52 to 6.00
5. 5.52 to 6.00
